Molecular target: Steryl-sulfatase (Homo sapiens, UniProt P08842)
Sequence (P08842 whole entry): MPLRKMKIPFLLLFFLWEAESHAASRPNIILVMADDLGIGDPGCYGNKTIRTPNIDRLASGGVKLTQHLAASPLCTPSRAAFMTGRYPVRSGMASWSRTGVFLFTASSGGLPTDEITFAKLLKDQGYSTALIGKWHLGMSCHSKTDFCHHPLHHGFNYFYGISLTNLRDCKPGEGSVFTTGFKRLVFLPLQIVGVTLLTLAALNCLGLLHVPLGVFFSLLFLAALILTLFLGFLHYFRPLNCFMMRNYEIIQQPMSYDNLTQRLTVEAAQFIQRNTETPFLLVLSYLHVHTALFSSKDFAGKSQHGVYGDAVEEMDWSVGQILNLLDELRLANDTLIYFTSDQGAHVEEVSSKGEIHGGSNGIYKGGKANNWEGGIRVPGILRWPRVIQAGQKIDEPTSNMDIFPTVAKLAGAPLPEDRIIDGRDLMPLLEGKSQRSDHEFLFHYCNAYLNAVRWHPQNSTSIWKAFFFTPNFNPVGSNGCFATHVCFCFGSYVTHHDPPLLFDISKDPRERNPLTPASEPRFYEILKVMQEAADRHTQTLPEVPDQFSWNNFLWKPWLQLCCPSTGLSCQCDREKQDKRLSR
# key: entry, value: IC50
observable: IC50

molecule="C[C@]12CC[C@H](OC=O)C=C1CCC1C2CC[C@]2(C)C(=O)CCC12 (stereo partly drawn)" measvalue="> 10 µM"
molecule="C[C@]12CC[C@@H]3c4ccc(OC(=N)S)cc4CCC3[C@@H]1CCC2=O (single isomer, unassigned)" measvalue="> 50 µM"
molecule="C[C@]12CC[C@@H]3c4ccc(OC(N)=O)cc4CCC3[C@@H]1CCC2=O (single isomer, unassigned)" measvalue="> 50 µM"
molecule="O=COc1ccccc1 [FORMIC ACID PHENYL ESTER]" measvalue="> 30 µM"
molecule="CC(C)(C)OC(=O)NCC(=O)Oc1ccc2c(c1)CCC1[C@@H]2CC[C@]2(C)C(=O)CC[C@@H]12 (single isomer, unassigned)" measvalue="> 50 µM"
molecule="CC(=O)Oc1ccc2c(c1)CCC1[C@@H]2CC[C@]2(C)C(=O)CC[C@@H]12 (single isomer, unassigned)" measvalue="> 50 µM"
molecule="C[C@]12CC[C@@H]3c4ccc(OS(N)(=O)=O)cc4CCC3[C@@H]1CCC2=O (single isomer, unassigned) [EMATE]" measvalue="0.05 µM"
molecule="C[C@]12CC[C@@H]3c4ccc(OC#N)cc4CCC3[C@@H]1CCC2=O (single isomer, unassigned)" measvalue="> 50 µM"
